- Subject Of Test: T1, Human CD98 ECD with C-terminal His-tag (human, UniProt P08195 105-529)
- T1 construct: The entry includes the linker and the polyhistidine tag; also called huCD98 ECD
- T1 sequence: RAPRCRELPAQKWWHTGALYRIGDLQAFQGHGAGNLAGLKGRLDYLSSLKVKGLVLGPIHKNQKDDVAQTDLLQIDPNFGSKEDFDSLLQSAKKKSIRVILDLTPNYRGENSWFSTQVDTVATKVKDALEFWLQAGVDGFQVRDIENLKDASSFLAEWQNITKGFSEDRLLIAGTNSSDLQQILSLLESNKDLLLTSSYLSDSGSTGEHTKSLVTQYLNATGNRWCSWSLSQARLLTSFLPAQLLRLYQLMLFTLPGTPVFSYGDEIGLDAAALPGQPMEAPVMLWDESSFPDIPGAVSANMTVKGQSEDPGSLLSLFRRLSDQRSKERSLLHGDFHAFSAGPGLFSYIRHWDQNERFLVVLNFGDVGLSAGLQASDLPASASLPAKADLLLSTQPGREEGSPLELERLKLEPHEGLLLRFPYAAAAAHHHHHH
- Test Summary: SPR (Biacore), antibody captured on anti-Fc surface, CD98 ECD in solution
Observed Property: koff (s⁻¹)
Field format: number, assumed s⁻¹, no unit text.

huAb15v1 (antibody, V domains shown, Humanized, further engineered clone of chAb15, converted to IgG and expressed as a full-length antibody) VH: EVQLVESGGGVVQPGRSLRLSCAASGFTFSDYTMAWVRQAPGKGLEWVATIIYSGRGTYYRDAVKGRFTISRDNSKSTLYLQMNSLRAEDTAVYYCARQSDHTYYYWGYFDYWGQGTMVTVSS VL: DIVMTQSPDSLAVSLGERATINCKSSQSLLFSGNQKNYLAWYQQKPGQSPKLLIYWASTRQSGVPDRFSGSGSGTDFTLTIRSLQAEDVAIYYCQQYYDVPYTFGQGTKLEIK = 2.3e-05

Lookup: Dear colleague, I am looking for the recorded koff of the following binder: huAb15v6 (antibody, V domains shown, Humanized, further engineered clone of chAb15, converted to IgG and expressed as a full-length antibody) VH: EVQLVESGGGVVQPGRSLRLSCAASGFTFSDYTMAWVRQAPGKGLEWVATIIYDARGTYYRDAVKGRFTISRDNSKSTLYLQMNSLRAEDTAVYYCARQSDDTYYYWGYFDYWGQGTMVTVSS VL: DIVMTQSPDSLAVSLGERATINCKSSQSLLFSGNQKNYLAWYQQKPGQSPKLLIYWASTRQSGVPDRFSGSGSGTDFTLTIRSLQAEDVAIYYCQQYYSSPYTFGQGTKLEIK
Found: 0.00026

Lookup: Sample huAb15v5 (antibody, V domains shown, Humanized, further engineered clone of chAb15, converted to IgG and expressed as a full-length antibody) VH: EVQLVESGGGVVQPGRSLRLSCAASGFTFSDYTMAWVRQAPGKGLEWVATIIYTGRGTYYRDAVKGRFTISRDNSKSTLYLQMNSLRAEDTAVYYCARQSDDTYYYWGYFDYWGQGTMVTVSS VL: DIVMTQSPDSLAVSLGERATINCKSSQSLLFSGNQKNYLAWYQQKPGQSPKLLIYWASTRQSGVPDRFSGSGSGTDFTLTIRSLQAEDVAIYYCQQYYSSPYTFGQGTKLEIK — what was its koff?
Found: 0.00013

Lookup: // koff lookup, key: huAb15v4 (antibody, V domains shown, Humanized, further engineered clone of chAb15, converted to IgG and expressed as a full-length antibody) VH: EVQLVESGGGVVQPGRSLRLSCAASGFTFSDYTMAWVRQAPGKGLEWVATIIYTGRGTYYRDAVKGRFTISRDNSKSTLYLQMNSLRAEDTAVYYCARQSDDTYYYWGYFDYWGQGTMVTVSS VL: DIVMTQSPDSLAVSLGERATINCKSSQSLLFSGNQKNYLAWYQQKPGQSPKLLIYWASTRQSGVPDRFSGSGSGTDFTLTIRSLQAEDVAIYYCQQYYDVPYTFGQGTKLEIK
Found: 2.8e-05
